# IC50 per record follows
# Target system: UniProtKB P61073
# Sequence (P61073 whole entry): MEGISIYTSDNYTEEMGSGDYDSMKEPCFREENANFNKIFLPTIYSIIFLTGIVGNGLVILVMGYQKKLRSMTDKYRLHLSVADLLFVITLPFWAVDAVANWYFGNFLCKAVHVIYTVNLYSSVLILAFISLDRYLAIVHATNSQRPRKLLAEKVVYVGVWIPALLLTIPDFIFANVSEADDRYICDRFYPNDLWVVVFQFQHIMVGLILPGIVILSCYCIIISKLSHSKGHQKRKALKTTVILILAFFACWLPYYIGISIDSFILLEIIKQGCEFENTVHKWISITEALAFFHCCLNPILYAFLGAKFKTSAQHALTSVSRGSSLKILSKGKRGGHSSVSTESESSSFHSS
# Assay remarks: Intracellular CXCL-12-induced calcium mobilization assay (FLIPR)
# Condition parameters: U87.CXCR4 cells; CXCL-12 25-50 ng/mL; compound added 15 min before; read-out: IC50 CXCL-12 Ca^2+ flux U87.CXCR4+

- Compound: "Cc1cccnc1[C@@H]1CCC[C@H](c2nc3cccc(OC4CCN(C(C)C)CC4)c3[nH]2)N1C"
  IC50: "0.01 to 100 nM"
- Compound: "Cc1cccnc1[C@@H]1CCC[C@H](c2nc3cccc(N4CC5CC(C4)N5C)c3[nH]2)N1C"
  IC50: "100 to 1000 nM"
- Compound: "Cc1cccnc1[C@@H]1CCC[C@H](c2nc3cccc(N4CCN5CCCC5C4)c3[nH]2)N1 (stereo partly drawn)"
  IC50: "0.01 to 100 nM"
- Compound: "Cc1cccnc1[C@@H]1CCC[C@H](c2nc3ccccc3n2CC2CCN(C)CC2)N1C"
  IC50: "0.01 to 100 nM"
- Compound: "Cc1cccnc1[C@@H]1CCC[C@H](c2nc3cccc(C4CCNCC4)c3[nH]2)N1C"
  IC50: "0.01 to 100 nM"
- Compound: "Cc1cccnc1[C@@H]1CCC[C@H](c2nc3ccccc3n2CCc2ccccn2)N1C"
  IC50: "≥ 1000 nM"
- Compound: "Cc1cccnc1[C@@H]1CCC[C@H](c2nc3cccc(N4CC5CCC(C4)N5C)c3[nH]2)N1"
  IC50: "0.01 to 100 nM"
- Compound: "CNCCCCn1c([C@H]2CCC[C@@H](c3ncccc3C)N2C)nc2ccccc21"
  IC50: "≥ 1000 nM"
- Compound: "Cc1cccnc1[C@@H]1CCC[C@H](c2nc3cccc(N4CCNC(C)(C)C4)c3[nH]2)N1C"
  IC50: "0.01 to 100 nM"
- Compound: "Cc1cccnc1[C@@H]1CCC[C@H](c2nc3ccccc3n2CC2CCN(CC(F)(F)F)CC2)N1C"
  IC50: "≥ 1000 nM"
- Compound: "Cc1cccnc1[C@@H]1CCC[C@H](c2nc3cccc(N4CCN(C)CC4)c3[nH]2)N1"
  IC50: "0.01 to 100 nM"
- Compound: "Cc1cccnc1[C@@H]1CCC[C@H](c2nc3ccccc3n2CCCN)N1C"
  IC50: "0.01 to 100 nM"
- Compound: "Cc1cc(F)cnc1[C@@H]1CCC[C@H](c2nccn2C2CCN(C)CC2)N1"
  IC50: "≥ 1000 nM"
- Compound: "Cc1cccnc1[C@@H]1CCC[C@H](c2nccn2CCn2cccn2)N1"
  IC50: "≥ 1000 nM"
- Compound: "CCN1CCC(Oc2cccc3nc([C@H]4CCC[C@@H](c5ncccc5C)N4C)[nH]c23)CC1"
  IC50: "0.01 to 100 nM"

====

# Assay remarks: in vitro
# Condition parameters: human, Caco-2, pH 7.4
# Papp A→B at 90 min, 10 μM per record follows

- Compound: "Cc1cccnc1[C@@H]1CCC[C@H](c2nc3ccccc3n2C2CCN(C)CC2)N1"
  Papp A→B at 90 min, 10 μM: "0.1 to 10 ×10⁻⁶ cm/s"
- Compound: "CCN1CCC(Oc2cccc3nc([C@H]4CCC[C@@H](c5ncccc5C)N4C)[nH]c23)CC1"
  Papp A→B at 90 min, 10 μM: "0.1 to 10 ×10⁻⁶ cm/s"
- Compound: "Cc1cccnc1[C@@H]1CCC[C@H](c2nc3cccc(N4C[C@@H](C)N(C)[C@@H](C)C4)c3[nH]2)N1C"
  Papp A→B at 90 min, 10 μM: "10 to 30 ×10⁻⁶ cm/s"
- Compound: "Cc1cccnc1[C@@H]1CCC[C@H](c2nc3cccc(N4CCNC(C)(C)C4)c3[nH]2)N1C"
  Papp A→B at 90 min, 10 μM: "0.1 to 10 ×10⁻⁶ cm/s"
- Compound: "CN1C2CCC1CN(c1cccc3nc([C@H]4CCC[C@@H](c5ncccc5Cl)N4)[nH]c13)C2"
  Papp A→B at 90 min, 10 μM: "10 to 30 ×10⁻⁶ cm/s"
- Compound: "Cc1cccnc1[C@@H]1CCC[C@H](c2nc3ccccc3n2CCCCN2CCOCC2)N1C"
  Papp A→B at 90 min, 10 μM: "10 to 30 ×10⁻⁶ cm/s"
- Compound: "CN(C)C1CCN(c2cccc3nc([C@H]4CCC[C@@H](c5ncccc5Cl)N4C)[nH]c23)CC1"
  Papp A→B at 90 min, 10 μM: "10 to 30 ×10⁻⁶ cm/s"
- Compound: "Cc1cccnc1[C@@H]1CCC[C@H](c2nc3cccc(N4CC5CCC(C4)N5C)c3[nH]2)N1C"
  Papp A→B at 90 min, 10 μM: "10 to 30 ×10⁻⁶ cm/s"
- Compound: "Cc1cccnc1[C@@H]1CCC[C@H](c2nc3ccccc3n2CC2CCCN(C)C2)N1C (some centres unmarked)"
  Papp A→B at 90 min, 10 μM: "0.1 to 10 ×10⁻⁶ cm/s"
- Compound: "Cc1ccnc([C@@H]2CCC[C@H](c3nc4cccc(N5CCN(C)CC5)c4[nH]3)N2C)c1Cl"
  Papp A→B at 90 min, 10 μM: "10 to 30 ×10⁻⁶ cm/s"
- Compound: "CN1CCN(c2cccc3nc([C@H]4CCC[C@@H](c5nccn6cccc56)N4C)[nH]c23)CC1 (stereo in doubt)"
  Papp A→B at 90 min, 10 μM: "10 to 30 ×10⁻⁶ cm/s"
- Compound: "CN1CCC(n2ccnc2[C@H]2CCC[C@@H](c3ccccn3)N2)CC1"
  Papp A→B at 90 min, 10 μM: "0.1 to 10 ×10⁻⁶ cm/s"
- Compound: "Cc1cccnc1[C@@H]1CCC[C@H](c2nc3cccc(N4C5CCC4CN(C)C5)c3[nH]2)N1C"
  Papp A→B at 90 min, 10 μM: "10 to 30 ×10⁻⁶ cm/s"
- Compound: "Cc1cccnc1[C@@H]1CCC[C@H](c2nc3ccccc3n2CCCN2CCN(C)CC2)N1C"
  Papp A→B at 90 min, 10 μM: "0.1 to 10 ×10⁻⁶ cm/s"
- Compound: "Cc1cccnc1[C@@H]1CCC[C@H](c2nc3ccccc3n2CCC#N)N1C"
  Papp A→B at 90 min, 10 μM: "> 30 ×10⁻⁶ cm/s"
- Compound: "Cc1cccnc1[C@@H]1CCC[C@H](c2nccn2CC2CCN(C)CC2)N1"
  Papp A→B at 90 min, 10 μM: "0.1 to 10 ×10⁻⁶ cm/s"
- Compound: "Cc1cccnc1[C@@H]1CCC[C@H](c2nccn2Cc2ccccc2-n2cccn2)N1"
  Papp A→B at 90 min, 10 μM: "> 30 ×10⁻⁶ cm/s"
- Compound: "COCCc1ccc(OCC(O)CNC(C)C)cc1 (centres unmarked) [Metoprolol, reference compound]"
  Papp A→B at 90 min, 10 μM: "> 10 ×10⁻⁶ cm/s"
- Compound: "Cc1cccnc1[C@@H]1CCC[C@H](c2nc3cccc(N4CCN(C)C5(CC5)C4)c3[nH]2)N1"
  Papp A→B at 90 min, 10 μM: "10 to 30 ×10⁻⁶ cm/s"
- Compound: "Cc1cccnc1[C@@H]1CCC[C@H](c2nc3ccccc3n2CCCN(C)C)N1"
  Papp A→B at 90 min, 10 μM: "0.1 to 10 ×10⁻⁶ cm/s"

Provenance of the data: patent US10988465B2
